The following compounds are shown together with reported AC50 values.
Target: Gamma-aminobutyric acid receptor subunit alpha-1 (Rattus norvegicus); note: assay procedure not described here
Sequence (P62813 whole entry): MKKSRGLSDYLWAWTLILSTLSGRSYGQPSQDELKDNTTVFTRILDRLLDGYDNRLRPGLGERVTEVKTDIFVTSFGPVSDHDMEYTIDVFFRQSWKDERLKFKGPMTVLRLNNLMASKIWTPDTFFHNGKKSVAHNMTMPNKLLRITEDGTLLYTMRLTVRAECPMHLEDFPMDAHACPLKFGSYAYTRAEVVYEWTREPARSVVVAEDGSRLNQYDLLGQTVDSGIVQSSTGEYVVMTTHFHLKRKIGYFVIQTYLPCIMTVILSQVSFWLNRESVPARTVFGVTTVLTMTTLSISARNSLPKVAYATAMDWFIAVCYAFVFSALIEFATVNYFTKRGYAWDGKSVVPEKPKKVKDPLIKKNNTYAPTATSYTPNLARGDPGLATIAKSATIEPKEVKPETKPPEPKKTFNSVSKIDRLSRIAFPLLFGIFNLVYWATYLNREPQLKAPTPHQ
Format: functional

These solved cases illustrate the format of a correct answer.
[[record]]
compound = "CCCN(CC)C(CC)C(=O)Nc1c(C)cccc1C (stereo not drawn)"
property_measured = "AC50"
test_result = "> 30 µM"

[[record]]
compound = "CCCOC(C(=O)OC1CCN(C)CC1)(c1ccccc1)c1ccccc1"
property_measured = "AC50"
test_result = "> 30 µM"

[[record]]
compound = "CC(C)N(CCCCOCC(=O)NS(C)(=O)=O)c1cnc(-c2ccccc2)c(-c2ccccc2)n1"
property_measured = "AC50"
test_result = "> 30 µM"

[[record]]
compound = "CO[C@@]1(NC(=O)CSCC#N)C(=O)N2C(C(=O)O)=C(CSc3nnnn3C)CS[C@@H]21"
property_measured = "AC50"
test_result = "> 30 µM"


In: Using the record for `COC1=C(OC)C(=O)C(CCCCCCCCCCO)=C(C)C1=O` , report its AC50.
Out: > 10 µM

In: Using the record for `NCCCC(O)(P(=O)(O)O)P(=O)(O)O` , report its AC50.
Out: > 10 µM

In: Using the record for CCC(C)(Oc1ccc(C2(c3ccc(OC(C)(CC)C(=O)O)cc3)CCCCC2)cc1)C(=O)O (stereo not drawn) [CLINOFIBRATE] , report its AC50.
Out: > 30 µM

In: Using the record for CC(=O)Oc1ccccc1C(=O)Nc1ncc([N+](=O)[O-])s1 [NITAZOXANIDE] , report its AC50.
Out: > 30 µM

In: Using the record for O=C1Nc2ccc(Cl)cc2C(c2ccccc2)=NC1O (stereo not drawn) , report its AC50.
Out: 0.03 µM

In: Using the record for `O=C(CCCN1CCC2(CC1)C(=O)NCN2c1ccccc1)c1ccc(F)cc1` , report its AC50.
Out: > 30 µM

In: Using the record for `CCCCNc1ccc(C(=O)OCCN(C)C)cc1` , report its AC50.
Out: > 10 µM

In: Using the record for `CCCCC1(CC)C(=O)NC(=O)NC1=O` , report its AC50.
Out: > 30 µM

In: Using the record for `OCCN1CCN(CC/C=C2/c3ccccc3Sc3ccc(Cl)cc32)CC1` , report its AC50.
Out: > 10 µM

Every entry's value here was drawn from ChEMBL document CHEMBL5291721.
